The reported numbers originate from PubChem BioAssay.

# Test system: Noggin (protein binding on small-molecule microarray)
# PROCEDURE_DETAILS: Noggin binders on small-molecule microarray, primary screen, biochemical, 635/667 nm fluorescence (AID 1095);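 further: score merges 667 nm feature fluorescence with signal to noise over triplicate slides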
# TEST_SETTINGS: 635 nm fluorescence, higher = more signal
Item-by-item account of composite z-score
Quick one: just the number, no unit, thanks!

# count of solved cases: 2
# MOLECULE, composite z-score
records = [
    ("COC(=O)C1=CC(CCCO)=CC(C)N(Cc2cccc(OC(F)(F)F)c2)C=C1C(=O)OC (stereo not drawn)", -0.296),
    ("COCCOC(=O)N1C(=O)[C@@]2(c3ccccc31)[C@H](c1ccc(OCCO)cc1)N1[C@H](c3ccccc3)[C@H](c3ccccc3)OC(=O)[C@H]1[C@@H]2C(=O)N1CCCCCCC1", 2.45),
]

Request: Recall and state the measured composite z-score for CC(C)C[C@@H]1NC(=O)[C@@]23C(=O)N[C@@H](Cc4ccccc4)C2[C@H](C)[C@@]2(C)O[C@H]2C3/C=C/C/C=C\CNC(=O)[C@@H](C)NC1=O (stereo partly drawn) .
Result: 0.33

Request: Please supply the value of reported composite z-score for the item CN(C)C(=O)[C@]1(CCS(=O)(=O)c2ccccc2)N=C(c2ccc(OCCCO)cc2)O[C@@H]1c1ccccc1
Result: 0.577

Request: Fill in composite z-score for record COc1cc(NN2C(C(O)c3ccc(I)cc3)C=CC3C(=O)N(c4ccccc4)C(=O)C32)cc(OC)c1OC (stereo not drawn)
Result: 0.218

Request: Complete the entry with composite z-score for COc1cccc(/C=C(\C#N)C(=O)Nc2c(C)n(C)n(-c3ccccc3)c2=O)c1
Result: 0.161

Request: Please report the measured composite z-score for CCCC=C(CCC)[C@@H](NC(=O)CCc1ccccc1)c1ccc(C(F)(F)F)cc1
Result: 0.0368

Request: Output measured composite z-score for this item: Cc1nc2cc(Br)ccc2c(=O)n1Cc1cccc(O)c1
Result: 1.33

###

Known composite z-score of a selection of molecules
# Test system: Noggin (protein binding on small-molecule microarray)
# PROCEDURE_DETAILS: Noggin binders on small-molecule microarray, primary screen, biochemical, 635/667 nm fluorescence (AID 1095);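 further: score merges 667 nm feature fluorescence with signal to noise over triplicate slides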
# TEST_SETTINGS: 635 nm fluorescence, higher = more signal

Sample answers from the record:
# MOLECULE, composite z-score
measured = [
    ("COC(=O)[C@@]1(Cc2ccccc2)[C@H]2c3cc(C(=O)N(C)C)n(CCn4cc([N+](=O)[O-])nc4C)c3C[C@H]2CN1C(=O)c1ccccc1", 0.0356),
    ("CCCNC(=O)[C@@]1(Sc2ccc(C)cc2)CC(=O)N(C(C)C)[C@@H]1c1ccc(CO)cc1I", -0.719),
    ("CC(C)C(=C=CC[C@@H](O)c1cccc(OCCO)c1)C[C@@H](O)c1ccccn1", 0.38),
    ("CCOC(=O)C1=C[C@@H](C(C)(C)C)N(S(=O)(=O)c2ccc(C)cc2)[C@H]1c1ccccc1", 0.576),
    ("COc1ccc([Si](C)(C)[C@@H]2[C@@H](CCn3cc([C@H](O)c4ccccc4)nn3)O[C@]3(C(=O)N(c4ccccc4)c4ccccc43)[C@H]2C)cc1", 0.431),
    ("COc1ccc(C#Cc2ccc3c(c2)[C@]2(C(=O)N3)[C@H](c3ccc(OCCO)cc3)N3[C@H](c4ccccc4)[C@H](c4ccccc4)OC(=O)[C@H]3[C@@H]2C(=O)N2CCc3cc(OC)c(OC)cc3C2)cc1", 0.784),
    ("Cc1ccccc1C(O)C1C=CC2C(=O)NC(=O)C2N1Nc1ccc(Cl)cc1Cl (configuration not stated)", 0.287),
    ("COC(=O)C(CC#Cc1ccc2c(c1)[C@]1(C(=O)N2)[C@H](C(=O)Nc2nc3ccccc3s2)[C@H]2C(=O)O[C@H](c3ccccc3)[C@H](c3ccccc3)N2[C@@H]1c1ccc(OCCO)cc1)C(=O)OC", 1.59),
]

Request: // fetch composite z-score given entry [N-]=[N+]=Nc1ccccc1[C@@H]1OC(c2ccc(OCCCO)cc2)=N[C@]1(Cc1ccccc1)C(=O)NCc1ccccc1
Result: 0.849

###

# PROCEDURE_DETAILS: small-molecule microarray binders of probe aCHRDL2, primary screen, biochemical, biotinylated probe, 635/667 nm fluorescence (AID 1100)
# TEST_SETTINGS: higher = more signal
molecules and their reported composite z-score
# output: bare number, no unit

Please review the following examples before continuing.
# MOLECULE, TEST_READOUT, NUMERIC_READOUT
records = [
    ("C=C(/C(=C/C[C@@H](OC(=O)c1ccncc1)c1cccc(OCCO)c1)c1cnc2ccccc2c1)C(C)C", "composite z-score", 0.415),
    ("C=C(CCCC)C(=O)CC[C@H](OC(=O)c1ccccc1-c1ccccc1C(=O)O)c1ccccc1OCCO", "composite z-score", -0.336),
    ("CO[C@H]1O[C@H](CO)[C@@H](OC(=O)Nc2cccc(F)c2)[C@H](OC(=O)Nc2ccccc2-c2ccccc2)[C@H]1OC(=O)Nc1ccccc1-c1ccccc1", "composite z-score", 0.735),
]

Now look at this entry.
Request: Give the reported composite z-score for this molecule. CC1CC/C=C\[C@H]2OC34C=CCN(C(C)(C)C)C(=O)[C@H]3N(C(CO)C(C)C)C(=O)[C@@H]4C2C(=O)O1 (some centres undefined)
Result: -0.347

###

# PROCEDURE_DETAILS: modulators of S6 phosphorylation in cells, primary screen, cell-based, A549, cytoblot, luminescence, serum-stimulated (AID 1158);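 further: serum-stimulated A549 lung adenocarcinoma cells; signal is phosphorylated S6 detected by cytoblot immunostaining with HRP secondary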
# TEST_SETTINGS: A549 phospho-S6 cytoblot, 5 h, higher = more signal
Entry flag: criterion met if z-score reaches -0.3; criterion not met if it does not.

# MOLECULE, DISCRETE_LABEL
records = [
    ("CN(C)CCCC[C@@H]1NC(=O)[C@@H]2C[C@H](C(=O)O)[C@H](c3cccc(OCCO)c3)N2C1=O", "criterion not met"),
    ("CN1C(=O)C2C(C1=O)C1C=C(CCCO)C2C(C2CC2)N1Cc1cc2c(cc1Br)OCO2 (centres undefined)", "criterion met"),
    ("CC(C)OC(=O)CC(=O)CC(O)c1ccc([N+](=O)[O-])cc1 (centres undefined)", "criterion met"),
]

Request: hey, is z-score for this one >= -0.3? O=C1O[C@H](c2ccccc2)[C@H](c2ccccc2)N2[C@H]1[C@@H](C(=O)N1CCCCCCC1)[C@]1(C(=O)Nc3ccc(C#CC4(O)CCCCCC4)cc31)[C@H]2c1ccccc1OCCO
Result: criterion met

Request: Say whether COC(=O)[C@@]1(Cc2ccc(F)cc2)[C@H]2c3cc(C(=O)N4CCCC4)n(C)c3C[C@H]2CN1C(=O)c1ccccc1 shows z-score of -0.3 or more.
Result: criterion met

Request: Dear colleague, could you confirm whether CO[C@H]1O[C@H](CO)[C@@H](OC(=O)c2ccc(Br)cc2)[C@@H]2OC(=O)[C@H](Cc3ccccc3)C/C=C/C[C@@H](Cc3ccccc3)C(=O)O[C@@H]12 has z-score at or above -0.3?
Result: criterion met

Request: API: above_or_equal(metric=z-score, cutoff=-0.3) for item CN1C(=O)C2C=CC(C(O)c3ccc(F)cc3)N(NC(=O)OC(C)(C)C)C2C1=O (centres undefined)
Result: criterion not met

Request: Could you please find out whether Cc1nc2cc(Br)ccc2c(=O)n1Cc1cccc(O)c1 has z-score that meets -0.3 or exceeds it?
Result: criterion met

Request: Quick check, z-score >= -0.3? C=C[C@@H](C)[C@@H](OC(=O)Nc1ccc(SC)cc1)c1ccc(OCCO)cc1
Result: criterion met

Request: # check: z-score of O=C1C2C=CC(C(O)C=Cc3ccc([N+](=O)[O-])cc3)N(Nc3ccccc3)C2C(=O)N1c1ccccc1 (centres undefined) is greater than or equal to -0.3
Result: criterion not met

###

In this section, each of the molecules is paired with its reported composite z-score.
# PROCEDURE_DETAILS: COS7 lysate on small-molecule microarray, probe aHis, 635 nm (AID 1123);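 further: z-score combines 667nm fluorescence intensity with signal-to-noise per printed compound spot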
# TEST_SETTINGS: COS7 cell lysate, fluorescence, higher = more signal
Output: the number by itself.

# MOLECULE, NUMERIC_READOUT
measured = [
    ("[N-]=[N+]=NCc1ccccc1C[C@]1(C(=O)N2CCOCC2)COC(c2ccc(OCCCO)cc2)=N1", 0.969),
]

Request: Input Cc1ccccc1C(O)C1C=CC2C(=O)N(c3ccccc3)C(=O)C2N1Nc1ccc([N+](=O)[O-])cc1 (stereo not given) , output reported composite z-score.
Result: 2.73

###

# PROCEDURE_DETAILS: basal S. cerevisiae growth modulation, no modifier, primary screen, OD600, strain BY4716, 24 h, basal condition (AID 1173)
# TEST_SETTINGS: OD600, 24 h, higher = more signal, called active from +8 up or from −8 down
TEST_READOUT: z-score
In your answer, state the number alone without any accompanying words.

Request: For the compound CC(C)c1ccc(NN2C(C(O)Cc3ccccc3)C=CC3C(=O)N(c4ccccc4)C(=O)C32)cc1 (stereo not given) , give its measured z-score value.
Result: -1.02

Request: Indicate its recorded z-score; the compound in question is O=C1C2C=CC(C(O)C=Cc3ccc([N+](=O)[O-])cc3)N(Nc3ccccc3)C2C(=O)N1c1ccccc1 (stereo not given)
Result: -2.88

Request: Retrieve z-score measured for COCCOC(=O)N1C(=O)[C@@]2(c3cc(C#CCNC(N)=O)ccc31)[C@H](c1ccc(OCCO)cc1)N1[C@H](c3ccccc3)[C@H](c3ccccc3)OC(=O)[C@H]1[C@@H]2C(=O)NC[C@H](O)c1ccccc1 and print it.
Result: 1.82

Request: Return value of z-score for input CN1C(=O)C2C(C1=O)C1C=C(CCCO)C2C(C2CC2)N1Cc1cc2c(cc1Br)OCO2 (stereo not given) , no commentary.
Result: -0.975

Request: Using known records, supply z-score for CN1C(=O)C2C=CC(C(O)c3ccc(I)cc3)N(Nc3ccccc3)C2C1=O (stereo not given)
Result: -0.245
